subject.of.test: UniProt:Q06418
Sequence (Q06418 41-890 limits assumed): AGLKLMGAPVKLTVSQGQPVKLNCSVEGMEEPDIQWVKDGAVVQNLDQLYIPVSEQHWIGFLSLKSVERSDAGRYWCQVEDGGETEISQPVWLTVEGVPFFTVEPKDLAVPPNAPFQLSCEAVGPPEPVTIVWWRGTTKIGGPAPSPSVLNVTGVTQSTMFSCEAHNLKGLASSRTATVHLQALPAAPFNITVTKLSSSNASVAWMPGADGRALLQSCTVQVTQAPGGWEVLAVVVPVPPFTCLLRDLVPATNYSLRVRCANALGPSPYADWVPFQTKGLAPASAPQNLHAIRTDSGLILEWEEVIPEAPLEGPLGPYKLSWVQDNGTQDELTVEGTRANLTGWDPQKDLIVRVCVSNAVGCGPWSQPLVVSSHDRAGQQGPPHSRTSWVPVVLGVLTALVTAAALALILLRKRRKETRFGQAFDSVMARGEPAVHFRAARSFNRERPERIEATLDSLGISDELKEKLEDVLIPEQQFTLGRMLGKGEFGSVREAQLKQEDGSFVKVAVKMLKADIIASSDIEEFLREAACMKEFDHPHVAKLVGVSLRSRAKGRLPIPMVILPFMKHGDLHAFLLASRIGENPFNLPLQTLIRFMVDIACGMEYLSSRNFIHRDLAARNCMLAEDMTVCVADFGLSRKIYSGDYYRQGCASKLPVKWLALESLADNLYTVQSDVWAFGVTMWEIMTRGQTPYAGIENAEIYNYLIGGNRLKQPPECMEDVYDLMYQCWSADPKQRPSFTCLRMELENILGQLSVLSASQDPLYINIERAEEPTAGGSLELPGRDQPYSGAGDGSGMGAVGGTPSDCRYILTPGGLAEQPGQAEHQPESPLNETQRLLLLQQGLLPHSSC
conditions: read-out: IC50 Tyro3
# pIC50 per entry
Quick note: pIC50 means taking -log10 of the concentration in moles per liter.

>>> measured_result("CCCCNc1ncc(-c2ccc(C=C3CCNCC3)cn2)c(N[C@H]2CC[C@H](O)CC2)n1 [UNC4336A]")
7.89
>>> measured_result("CCCCNc1ncc(-c2ccc(CC3CCN(C)CC3)cn2)c(N[C@H]2CC[C@H](O)CC2)n1 [UNC4337A]")
7.18
>>> measured_result("CCCCNc1ncc(-c2cc(NC3CCCCCC3)ncn2)c(N[C@H]2CC[C@H](O)CC2)n1 [UNC4261A]")
6.42
>>> measured_result("CCCCNc1ncc(-c2ccc(CN3CC(C)NC(C)C3)cn2)c(NC2CCC(O)CC2)n1 (centres unmarked) [UNC4105A]")
7.57
>>> measured_result("CCCCNc1ncc(-c2nc(C(=O)O)cs2)c(N[C@H]2CC[C@H](O)CC2)n1 [UNC3139A]")
5.59

Qu. Return reported pIC50. Input compound: CCCCNc1ncc(-c2ccc(CNC3CC4CCC(C3)N4C)cn2)c(N[C@H]2CC[C@H](O)CC2)n1 (some centres unmarked) [UNC4163A]
Ans. 8.06

Qu. Return reported pIC50. Input compound: CCCCNc1ncc(C(=O)NCC2CCN(C(C)=O)CC2)c(N[C@H]2CC[C@H](O)CC2)n1 [UNC4288A]
Ans. 6.58

Qu. Return reported pIC50. Input compound: CCCCNc1ncc(C(=O)NCc2ccc(-n3cnc(CO)c3)cc2)c(N[C@H]2CC[C@H](O)CC2)n1 [UNC3183A]
Ans. 6.43

----------
# IC50 per entry
subject.of.test: Axl (Homo sapiens (Human), UniProt P30530)
Sequence (P30530 26-894 limits assumed): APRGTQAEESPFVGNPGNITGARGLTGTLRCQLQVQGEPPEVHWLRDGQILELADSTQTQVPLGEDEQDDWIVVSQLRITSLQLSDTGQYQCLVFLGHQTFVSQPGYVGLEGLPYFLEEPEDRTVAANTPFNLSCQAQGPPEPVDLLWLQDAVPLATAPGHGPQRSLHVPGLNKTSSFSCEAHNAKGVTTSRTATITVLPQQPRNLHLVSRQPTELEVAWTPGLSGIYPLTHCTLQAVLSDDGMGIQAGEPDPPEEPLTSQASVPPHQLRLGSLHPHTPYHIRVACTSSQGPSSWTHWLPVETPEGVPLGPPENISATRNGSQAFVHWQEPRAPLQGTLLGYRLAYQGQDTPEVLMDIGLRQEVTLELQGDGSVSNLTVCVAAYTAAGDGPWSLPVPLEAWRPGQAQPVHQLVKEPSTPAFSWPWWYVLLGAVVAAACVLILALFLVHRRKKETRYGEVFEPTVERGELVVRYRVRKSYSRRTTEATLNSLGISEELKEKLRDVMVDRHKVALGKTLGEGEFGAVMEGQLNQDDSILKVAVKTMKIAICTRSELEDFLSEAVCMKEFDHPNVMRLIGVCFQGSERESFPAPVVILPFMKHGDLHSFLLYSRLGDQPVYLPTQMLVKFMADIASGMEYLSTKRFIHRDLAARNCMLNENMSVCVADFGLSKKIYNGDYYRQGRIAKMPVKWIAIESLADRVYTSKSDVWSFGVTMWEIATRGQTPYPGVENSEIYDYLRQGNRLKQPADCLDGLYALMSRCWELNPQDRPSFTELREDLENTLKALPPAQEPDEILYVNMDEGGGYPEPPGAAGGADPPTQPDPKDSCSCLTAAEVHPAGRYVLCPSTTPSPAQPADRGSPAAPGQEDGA
test.details: biochemical
Report the value in nM with no unit label.

>>> measured_result("CCCCNc1ncc(-c2ccc(CNCc3ccncc3)cn2)c(N[C@H]2CC[C@H](O)CC2)n1 [UNC2571A]")
44
>>> measured_result("CCCCNc1ncc(-c2cc(N3CCN(C)CC3)ncn2)c(N[C@H]2CC[C@H](O)CC2)n1 [UNC3197A]")
1680
>>> measured_result("CCCCNc1ncc(-c2cc(N3CCCC3)ncn2)c(N[C@H]2CC[C@H](O)CC2)n1 [UNC3195A]")
188

Qu. Return reported IC50. Input compound: CCCCNc1ncc(-c2cc(NC3CC3)ncn2)c(N[C@H]2CC[C@H](O)CC2)n1 [UNC3193A]
Ans. 169

----------
# pIC50 per entry
subject.of.test: Axl (Homo sapiens (Human))
conditions: read-out: IC50 Axl
Quick note: pIC50 means taking -log10 of the concentration in moles per liter.

Worked examples, 5 molecules total:
>>> measured_result("CCCCNc1ncc(-c2ccc(C=C3CCN(C)CC3)cn2)c(N[C@H]2CC[C@H](O)CC2)n1 [UNC4338A]")
7.38
>>> measured_result("CCCCNc1ncc(-c2ccc(NC(=O)C3CC3)cn2)c(NC2CCC(O)CC2)n1 (centres unmarked) [UNC2711A]")
6.19
>>> measured_result("CCCCNc1ncc(-c2cncc(N3CCOCC3)n2)c(N[C@H]2CC[C@H](O)CC2)n1 [UNC3138A]")
5.90
>>> measured_result("CCCCNc1ncc(C(=O)NCc2ccc(-n3cccn3)cc2)c(N[C@H]2CC[C@H](O)CC2)n1 [UNC2744A]")
6.56
>>> measured_result("C=CCN1CCC(CNC(=O)c2cnc(NCCCC)nc2N[C@H]2CC[C@H](O)CC2)CC1 [UNC4303A]")
6.11

Qu. Return reported pIC50. Input molecule: CCCCNc1ncc(-c2cnc(SC)cn2)c(N[C@H]2CC[C@H](O)CC2)n1 [UNC3074A]
Ans. 6.12

Qu. Return reported pIC50. Input molecule: CCCCNc1ncc(-c2cc(Nc3cccc(C(C)C)c3)ncn2)c(N[C@H]2CC[C@H](O)CC2)n1 [UNC4323A]
Ans. 4.52

Qu. Return reported pIC50. Input molecule: CCCCNc1ncc(-c2cc(Nc3cccc([N+](=O)[O-])c3)ncn2)c(N[C@H]2CC[C@H](O)CC2)n1 [UNC4322A]
Ans. 4.52
